Source: patent US20210246195A1

So I've got a bunch of binders here, and I need their pKd values.
Target: T1, Ara h 3 (purified natural peanut allergen) (Arachis hypogaea)
T1 construct: mature; bought natural protein; also called natural Ara h 3; NA-AH3-1
T1 sequence (main, as listed by the source): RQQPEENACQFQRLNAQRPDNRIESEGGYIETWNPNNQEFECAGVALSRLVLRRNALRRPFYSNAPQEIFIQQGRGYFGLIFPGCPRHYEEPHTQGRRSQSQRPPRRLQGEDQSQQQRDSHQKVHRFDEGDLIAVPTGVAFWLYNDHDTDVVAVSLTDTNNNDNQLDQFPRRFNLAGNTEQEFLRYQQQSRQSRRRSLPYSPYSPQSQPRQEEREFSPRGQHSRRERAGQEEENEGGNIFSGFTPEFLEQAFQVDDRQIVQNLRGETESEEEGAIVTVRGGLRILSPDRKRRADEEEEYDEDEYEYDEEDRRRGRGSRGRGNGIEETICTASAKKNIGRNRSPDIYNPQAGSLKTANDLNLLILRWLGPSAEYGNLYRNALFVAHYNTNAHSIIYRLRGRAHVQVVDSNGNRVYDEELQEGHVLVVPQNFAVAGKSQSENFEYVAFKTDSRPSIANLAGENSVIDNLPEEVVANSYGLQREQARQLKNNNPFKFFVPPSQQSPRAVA
Assay: BLI, antibody on anti-human IgG Fc sensors, Ara h 3 as analyte, top 32 nM
The scale used: pKd is minus the common logarithm of the concentration in molar units.

Query: pKd; subject: PA12P3F10 (antibody, human IgG1, V domains shown, human IgG1, kappa) VH: QVQLVESGGGVVQPGGSLTLSCVGSGFTFSHYAIHWVRQAPGKGLEWVAVISNVGTTRDYADSLKGRLTISRENSQSTVFLQMNSLRADDTAIYYCAKVLDYSEFHYYYGLDVWGQGTAVAVSS VL: EIVLTQSPGTLSLSPGQRVTLSCRVSQAIPTMYVAWYQQRPGQAPRLLIYGTSSRATGIPDRFSGGGSGTDFTLTINRLEPEDIAVYYCQHYSNSPPYTFGPGTKLEIK
7.96

Item: PA12P3D08 (antibody, human IgG1, V domains shown, human IgG1, kappa) VH: QVQLVESGGGVVQPGKSLRLSCAASAFTFRRFAMHWVRQAPGKGLEWVAVISDNGLREDYEDSVKGRFTISRDNSQNTLYLQMNGLRAEDTAVYYCAKVLDYNEYSLYFGMDVWGQGTTVTVSS VL: EVVLTQSPATLSLSPGERATLSCRTSQAISNNFLAWYQQRPGQPPRLLIYASSRRATDTPDRFTGSGSGTDFTLTITRLEPEDFAVYFCQYYSDSPPYTFGPGTKLEIK
7.66

Item: PA13P3G09 (antibody, human IgG1, V domains shown, human IgG1, kappa) VH: QEQLVESGGGVVHPGGSLRLSCVASAFTFNRFGMHWVRQAPGKGLEWVAVISNDGRSQDYADSVKGRFIISRDNSKNTLYLQLNSLRFEDTAVYYCAKVLDYSIFYYYFGLDVWGQGTTVTVSS VL: EVVLTQSPGSLSLSPGERATLSCRAGQSLSSKFLAWYQHKPGQAPRLLIYGASTRATGVPDRFSGSGSGTDFSLIISRVEPEDFAVYYCQHYGDSPPYTFGQGTKVEMK
7.72
